target-under-test: Genome polyprotein (dengue virus type 2)
assay-method-text: Inhibition of Dengue virus serotype 2 NS2B-NS3 protease transfected in human HeLa cells measured after 24 hrs by Renilla-luciferase reporter gene assay
quantity-name: pEC50
On this scale, pEC50 is minus log10 of a concentration expressed in M (mol/L).

These recorded examples may help you get a feel for the data.
{"chem-smiles": "CCCCCC(=O)N[C@H](C(=O)NCc1ccc(N)nc1)c1ccc(OCc2ccccc2)cc1.O=C(O)C(F)(F)F", "quantity-name": "pEC50", "quantitative-readout": 4.89}
{"chem-smiles": "CCCCCC(=O)N[C@H](C(=O)NCc1ccc(CNC(=N)N)cc1)c1ccc(OCc2ccccc2)cc1.O=C(O)C(F)(F)F", "quantity-name": "pEC50", "quantitative-readout": 5.20}

Could you now consider this next molecule?
What measured pEC50 goes with N=C(N)Nc1ccc(CNC(=O)[C@@H](NC(=O)c2ccc(Oc3ccccc3)cc2)c2ccc(OCc3ccccc3)cc2)cc1.O=C(O)C(F)(F)F ?
5.52

---

target-under-test: UniProt P06935
Sequence (P06935 1371-1501 limits assumed): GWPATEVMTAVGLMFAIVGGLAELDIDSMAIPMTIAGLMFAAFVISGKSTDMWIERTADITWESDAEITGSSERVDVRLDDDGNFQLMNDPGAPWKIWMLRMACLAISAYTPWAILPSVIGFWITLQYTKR
Sequence (P06935 1502-2120 limits assumed): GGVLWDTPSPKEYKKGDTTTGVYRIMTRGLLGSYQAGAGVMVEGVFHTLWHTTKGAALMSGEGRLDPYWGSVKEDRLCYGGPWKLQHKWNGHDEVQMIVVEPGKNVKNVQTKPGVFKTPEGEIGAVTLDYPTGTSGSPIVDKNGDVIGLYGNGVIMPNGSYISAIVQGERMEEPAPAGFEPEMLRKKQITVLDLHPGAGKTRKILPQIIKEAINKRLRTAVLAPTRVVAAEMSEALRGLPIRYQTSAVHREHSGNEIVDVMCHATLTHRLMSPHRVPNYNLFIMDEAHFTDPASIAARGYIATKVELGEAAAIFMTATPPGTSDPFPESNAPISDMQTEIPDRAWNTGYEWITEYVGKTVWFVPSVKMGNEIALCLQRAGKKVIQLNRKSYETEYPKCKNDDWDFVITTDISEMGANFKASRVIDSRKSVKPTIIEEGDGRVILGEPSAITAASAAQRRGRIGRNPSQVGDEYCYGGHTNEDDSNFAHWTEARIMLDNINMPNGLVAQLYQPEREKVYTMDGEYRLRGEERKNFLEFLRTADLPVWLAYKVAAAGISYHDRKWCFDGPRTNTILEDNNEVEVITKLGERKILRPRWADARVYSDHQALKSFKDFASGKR
assay-method-text: Inhibition of West Nile virus NS2B-NS3 protease expressed in Escherichia coli BL21 lambda (DE3) cells using Abz-Gly-Leu-Lys-Arg-Gly-Gly-3-(NO2)Tyr as substrate preincubated for 15 mins followed by substrate addition measured for 15 mins by fluorimetric analysis
quantity-name: IC50 (µM)
// units = µM; emit number, no label

These recorded examples may help you get a feel for the data.
{"chem-smiles": "N=C(N)Nc1ccc(CNC(=O)[C@@H](NC(=O)c2cccc(Oc3ccccc3)c2)c2ccc(OCc3ccccc3)cc2)cc1.O=C(O)C(F)(F)F", "target-under-test": "UniProt P06935", "quantitative-readout": 6.1}
{"chem-smiles": "N=C(N)Nc1ccc(CNC(=O)[C@@H](NC(=O)c2ccc(-c3ccc(Cl)cc3)cc2)c2ccc(OCc3ccccc3)cc2)cc1.O=C(O)C(F)(F)F", "target-under-test": "UniProt P06935", "quantitative-readout": 3.7}
{"chem-smiles": "CCCCCC(=O)N[C@@H](C(=O)NCc1ccc(NC(=N)N)cc1)c1ccc(OCc2ccc(C(F)(F)F)cc2)cc1.O=C(O)C(F)(F)F", "target-under-test": "UniProt P06935", "quantitative-readout": 14}

What measured IC50 goes with N=C(N)Nc1ccc(CNC(=O)[C@@H](NC(=O)Cc2ccc(-c3ccccc3)cc2)c2ccc(OCc3ccccc3)cc2)cc1.O=C(O)C(F)(F)F ?
1.8

What measured IC50 goes with N=C(N)NCCC[C@H](NC(=O)c1ccccc1)C(=O)N[C@@H](CCCCN)C(=O)N[C@@H](C(N)=O)c1ccc(OCc2ccccc2)cc1 ?
3.9

What measured IC50 goes with CCCCCCCC(=O)N[C@H](C(=O)NCc1ccc(NC(=N)N)cc1)c1ccc(OCc2ccccc2)cc1.O=C(O)C(F)(F)F ?
11

What measured IC50 goes with CCCCCC(=O)N[C@H](C(=O)NCc1ccc(NC(=N)N)cc1)c1ccc(OCc2ccccc2)cc1.O=C(O)C(F)(F)F ?
13

What measured IC50 goes with CCCCCC(=O)N[C@H](C(=O)NCc1ccc(NC(=N)N)cc1)c1ccc(OCc2ccc(C(C)(C)C)cc2)cc1.O=C(O)C(F)(F)F ?
16

What measured IC50 goes with CCCCCC(=O)N[C@H](C(=O)NCc1ccc(NC(=N)N)cc1)c1ccc(OCc2ccc(C(F)(F)F)cc2)cc1.O=C(O)C(F)(F)F ?
12

What measured IC50 goes with CCCCCCCCCC(=O)N[C@H](C(=O)NCc1ccc(NC(=N)N)cc1)c1ccc(OCc2ccccc2)cc1.O=C(O)C(F)(F)F ?
5

What measured IC50 goes with CCCCCC(=O)N[C@H](C(=O)NCc1ccc(CN)cc1)c1ccc(OCc2ccccc2)cc1.O=C(O)C(F)(F)F ?
8.2

Data origin: ChEMBL document CHEMBL4619777
